The reported numbers originate from patent US20250197407A1.

- target_system: SOS1/KRAS WT (Homo sapiens (Human))
- protocol_notes: SOS1/KRAS WT HTRF binding assay (FRET-based protein-protein interaction)
- conditions_used: inhibition of His6-SOS1 (aa564-1049, 40 nM) binding to GST-KRAS-WT (aa1-188, 40 nM); at least two independent replicates; read-out: SOS1/KRAS WT HTRF Binding assay pIC50 (converted)
experimental_readout: IC50 (nM)
The response must be a number in nM with no trailing unit.

Cc1nnc(N[C@H](C)c2cccc(C(F)(F)CO)c2F)c2cc3c(cc12)C1(CCOCC1)C(=O)N3C : 8.13
Cc1nnc(N[C@H](C)c2cccc(C(F)(F)CO)c2)c2cc3c(cc12)N(C)C(=O)C31CCOCC1 : 6.31
CCN1C(=O)C(C)(OC)c2cc3c(C)nnc(N[C@H](C)c4cccc(C(F)(F)C(C)(C)O)c4C)c3cc21 (stereo partly shown) : 10.2
Cc1nnc(N[C@H](C)c2cccc(C(F)(F)F)c2)c2cc3c(cc12)n(C)c(=O)n3C1CCC1 : 11.5
CCC1(OC)C(=O)N(C)c2cc3c(N[C@H](C)c4cccc(C(F)(F)CO)c4C)nnc(C)c3cc21 (stereo partly shown) : 11.7
COC1(C)C(=O)N(C)c2cc3c(C)nnc(N[C@H](C)c4cccc(C(F)(F)C(C)(C)O)c4C)c3cc21 (stereo partly shown) : 15.8

Summary for this compound, `Cc1c(-c2cncnc2)cccc1[C@@H](C)Nc1nnc(C)c2cc3c(cc12)n(C)c(=O)n3C` : IC50 is 107

---

- target_system: SOS1/KRAS WT (Homo sapiens (Human), UniProt Q07889)
- Sequence (Q07889 564-1049): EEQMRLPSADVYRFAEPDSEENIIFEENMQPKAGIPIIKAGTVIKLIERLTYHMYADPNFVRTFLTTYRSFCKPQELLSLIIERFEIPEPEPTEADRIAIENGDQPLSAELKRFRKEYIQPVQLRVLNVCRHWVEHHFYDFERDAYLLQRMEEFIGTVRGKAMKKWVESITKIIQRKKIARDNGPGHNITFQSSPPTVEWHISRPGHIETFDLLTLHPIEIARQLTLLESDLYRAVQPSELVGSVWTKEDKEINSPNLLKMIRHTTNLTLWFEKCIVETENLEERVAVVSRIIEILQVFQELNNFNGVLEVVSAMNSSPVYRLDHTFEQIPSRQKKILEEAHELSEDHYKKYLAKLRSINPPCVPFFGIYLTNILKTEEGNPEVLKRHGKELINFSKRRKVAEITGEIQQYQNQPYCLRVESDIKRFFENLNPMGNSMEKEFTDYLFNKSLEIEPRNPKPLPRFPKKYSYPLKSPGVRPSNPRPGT
- protocol_notes: SOS1/KRAS WT HTRF binding assay (FRET-based protein-protein interaction)
- conditions_used: inhibition of His6-SOS1 (aa564-1049, 40 nM) binding to GST-KRAS-WT (aa1-188, 40 nM); at least two independent replicates; read-out: SOS1/KRAS WT HTRF Binding assay pIC50 (converted)
API: label(entry) gives Y if the entry's IC50 is strictly smaller than 10 nM; on equality or larger values it gives N.

Dear colleague, could you confirm whether IC50 of Cc1nnc(N[C@H](C)c2cccc3[nH]ncc23)c2cc3c(cc12)n(C)c(=O)n3C [Compound 60] falls below 10 nM? Thanks.
N

Is 10 nM strictly greater than the compound's reported IC50? compound: Cc1nnc(N[C@H](C)c2cccc(C(F)(F)CN)c2F)c2cc3c(cc12)n(C)c(=O)n3C(C)(C)C [Compound 53]
Y

Decide: IC50 of Cc1nnc(N[C@H](C)c2cccc(C(F)(F)CO)c2)c2cc3c(cc12)C(C)(C)C(=O)N3C [Compound 78] strictly below 10 nM?
Y

Say whether its IC50 is strictly beneath 10 nM. Entry: Cc1nnc(N[C@H](C)c2cccc(C(F)F)c2F)c2cc3c(cc12)n(C)c(=O)n3C1COC1 [Compound 147]
N

Hi there! Is IC50 for Cc1nnc(N[C@H](C)c2cccc(C(F)(F)CN)c2F)c2cc3c(cc12)C(C)(C)C(=O)N3C [Compound 118] below 10 nM, do you know?
N

Would you kindly verify if IC50 of CCC1(OC)C(=O)N(C)c2cc3c(C)nnc(N[C@H](C)c4cccc(C(F)(F)C(C)(C)O)c4C)c3cc21 (stereo partly shown) [Compound 191] is strictly less than 10 nM?
N

---

- target_system: SOS1/KRAS WT (Homo sapiens (Human))
- protocol_notes: SOS1/KRAS WT HTRF binding assay (FRET-based protein-protein interaction)
- conditions_used: inhibition of His6-SOS1 (aa564-1049, 40 nM) binding to GST-KRAS-WT (aa1-188, 40 nM); at least two independent replicates; read-out: SOS1/KRAS WT HTRF Binding assay pIC50 (converted)
experimental_readout: IC50 (nM)
Report only the number, with the unit nM understood.

Cc1nnc(N[C@H](C)c2cccc(C(F)(F)CO)c2)c2cc3c(cc12)C(C)(C)C(=O)N3C(C)C [Compound 82] : 9.33

Input Cc1cc(-c2cccc([C@@H](C)Nc3nnc(C)c4cc5c(cc34)n(C)c(=O)n5C)c2C)n(C)n1 [Compound 156] . Output IC50: 89.1

Field IC50 (entry COC1(C)C(=O)N(C)c2cc3c(C)nnc(N[C@H](C)c4cccc(C(F)(F)C(C)(C)O)c4F)c3cc21 (some centres unmarked) [Compound 179] ) reads 10.2

---

Reported IC50 values for a set of molecules
- target_system: SOS1/KRAS WT (Homo sapiens (Human))
- protocol_notes: SOS1/KRAS WT HTRF binding assay (FRET-based protein-protein interaction)
- conditions_used: inhibition of His6-SOS1 (aa564-1049, 40 nM) binding to GST-KRAS-WT (aa1-188, 40 nM); at least two independent replicates; read-out: SOS1/KRAS WT HTRF Binding assay pIC50 (converted)
Report as: number unit

Cc1c([C@@H](C)Nc2nnc(C)c3cc4c(cc23)n(C)c(=O)n4C)cccc1C(F)(F)F : 6.17 nM
Cc1c([C@@H](C)Nc2nnc(C)c3cc4c(cc23)N(C)C(=O)C4(C)C)cccc1C(F)(F)CO : 9.12 nM
Cc1nnc(N[C@H](C)c2cccc(C(F)F)c2F)c2cc3c(cc12)OC(C)(C)C(=O)N3C : 14.8 nM

Moving on to the next molecule.
Measured IC50, `Cc1c([C@@H](C)Nc2nnc(C)c3cc4c(cc23)N(C2CC2)C(=O)C42CCOCC2)cccc1C(F)(F)CO` : 7.41 nM

---

- target_system: SOS1/KRAS WT (Homo sapiens (Human))
- protocol_notes: SOS1/KRAS WT HTRF binding assay (FRET-based protein-protein interaction)
- conditions_used: inhibition of His6-SOS1 (aa564-1049, 40 nM) binding to GST-KRAS-WT (aa1-188, 40 nM); at least two independent replicates; read-out: SOS1/KRAS WT HTRF Binding assay pIC50 (converted)
Rule for this label: label 1 means IC50 is less than 9 nM; label 0 means IC50 is at least 9 nM.

Cc1c(C2CCOCC2)cccc1[C@@H](C)Nc1nnc(C)c2cc3c(cc12)n(C)c(=O)n3C [Compound 160] : label 0

Record Cc1nnc(N[C@H](C)c2cccc(C(F)(F)C(C)(C)O)c2)c2cc3c(cc12)C1(CCCC1)C(=O)N3C [Compound 188] : is its IC50 strictly below 9 nM?
label 0

Could you please tell me whether IC50 recorded for Cc1c([C@@H](C)Nc2nnc(C)c3cc4c(cc23)N(C)C(=O)C42CCOCC2)cccc1C(F)(F)C(C)(C)O [Compound 104] is less than 9 nM?
label 0

Dear reviewer, please state whether Cc1c(C2CC2)cccc1[C@@H](C)Nc1nnc(C)c2cc3c(cc12)n(C)c(=O)n3C [Compound 154] has IC50 strictly beneath 9 nM.
label 0

Is the reported IC50 for Cc1c(C2=CCNC2)cccc1[C@@H](C)Nc1nnc(C)c2cc3c(cc12)n(C)c(=O)n3C [Compound 158] strictly below 9 nM?
label 0

Item COC1(C)C(=O)N(C)c2cc3c(N[C@H](C)c4cccc(C(F)(F)C(C)(C)O)c4)nnc(C)c3cc21 (some centres unmarked) [Compound 90] : IC50 beneath 9 nM, strictly?
label 0

Threshold test, IC50 < 9 nM: Cc1nnc(N[C@H](C)c2cccc(C(F)F)c2F)c2cc3c(cc12)n(C)c(=O)n3C(C)(C)C [Compound 27]
label 0

Check if IC50 falls below 9 nM for Cc1nnc(N[C@H](C)c2cccc(C(F)(F)C(C)(C)O)c2)c2cc3c(cc12)C(C)(C)C(=O)N3C(C)C [Compound 81] .
label 1

State whether 9 nM exceeds IC50 recorded for COC1(C)C(=O)N(C)c2cc3c(N[C@H](C)c4cccc(C(F)(F)CO)c4)nnc(C)c3cc21 (some centres unmarked) [Compound 101] .
label 0

Strictly below 9 nM: is that where IC50 of Cc1c([C@@H](C)Nc2nnc(C)c3cc4c(cc23)N(C(C)C)C(=O)C4(C)C)cccc1C(F)(F)CO [Compound 79] sits?
label 1

---

- target_system: SOS1/KRAS WT (Homo sapiens (Human), UniProt Q07889)
- protocol_notes: SOS1/KRAS WT HTRF binding assay (FRET-based protein-protein interaction)
- conditions_used: inhibition of His6-SOS1 (aa564-1049, 40 nM) binding to GST-KRAS-WT (aa1-188, 40 nM); at least two independent replicates; read-out: SOS1/KRAS WT HTRF Binding assay pIC50 (converted)
experimental_readout: IC50 (nM)
# unit: nM | format: bare number

Would you please look over these solved cases?
COCCn1c(=O)n(C)c2cc3c(N[C@H](C)c4cccc(C(F)(F)F)c4)nnc(C)c3cc21 : 22.9
COCC1(C)C(=O)N(C)c2cc3c(N[C@H](C)c4cccc(C(F)(F)CO)c4C)nnc(C)c3cc21 (stereo partly shown) : 10.7

The compound listed as `Cc1nnc(N[C@H](C)c2cc(N)cc(C(F)(F)F)c2)c2cc3c(cc12)n(C)c(=O)n3C` has a reported IC50 of 17

IC50 recorded for this compound, `Cc1nnc(N[C@H](C)c2cccc(C(F)(F)C(C)(C)O)c2F)c2cc3c(cc12)C1(CCOCC1)C(=O)N3C` , is 6.92
